# TARGET DESC: CaCyk3
# TEST: SPOT peptide array binding signal intensity (averaged, normalized) (arbitrary units (background-subtracted, floor 0; scale differs between SH3 domains)); higher = stronger binding of the SH3 domain to the peptide
Kindly return Yes if reported SPOT peptide array binding signal intensity is no lower than 20; return No if it is lower.

As a guide, the following entries are already answered.
Exam item: decide whether the reported SPOT peptide array binding signal intensity for LPMNIQPDLPPRKIM is at least 20. No

Exam item: decide whether the reported SPOT peptide array binding signal intensity for AHFQPQRTAPKPPIS is at least 20. No

Exam item: decide whether the reported SPOT peptide array binding signal intensity for LRIKRKPVQTFFEFI is at least 20. No

New cases:
Exam item: decide whether the reported SPOT peptide array binding signal intensity for NPNRRAPRRPLSTQH is at least 20. Yes

Exam item: decide whether the reported SPOT peptide array binding signal intensity for KNPRRQLQIPRQQPS is at least 20. No

Exam item: decide whether the reported SPOT peptide array binding signal intensity for QTMRQAPKRPDADVA is at least 20. Yes

Exam item: decide whether the reported SPOT peptide array binding signal intensity for NRLRKRLNLPSEISI is at least 20. No

Exam item: decide whether the reported SPOT peptide array binding signal intensity for NPLPKEPRLPKRKVA is at least 20. No

Exam item: decide whether the reported SPOT peptide array binding signal intensity for FYHRPAPKPPVTKKV is at least 20. No

Exam item: decide whether the reported SPOT peptide array binding signal intensity for MTKTPETSPPKRPMG is at least 20. No

Exam item: decide whether the reported SPOT peptide array binding signal intensity for MKRSRPSRSIPYTTP is at least 20. Yes

Exam item: decide whether the reported SPOT peptide array binding signal intensity for EAEEAAPQLPSRSSA is at least 20. No

Exam item: decide whether the reported SPOT peptide array binding signal intensity for FPPKRKPLLRPQRSD is at least 20. Yes

Exam item: decide whether the reported SPOT peptide array binding signal intensity for NMLSRPRLAKLPSIR is at least 20. Yes

Exam item: decide whether the reported SPOT peptide array binding signal intensity for EREKALPPIPFTTTL is at least 20. No
